system: thrombin (UniProt P00734 328-622)
testMethodNotes: preliminary pseudo-first-order inhibition kinetics, residual chromogenic activity

{"binder": "A22 4.H11 PCI (P4KP2RP1′H) (other, As A22 WT PCI) APSSRRDFTFDLYRALASAAPSQNIFFSPVSISMSLAMLSLGAGSSTKMQILEGLGLNLQKSSEKELHRGFQQLLQELNQPRDGFQLSLGNALFTDLVVDLQDTFVSAMKTLYLADTFPTNFRDSAGAMKQINDYVAKQTKGKIVDLLKNLDSNAVVIMVNYIFFKAKWETSFNHKGTQEQDFYVTSETVVRVPMMSREDQYHYLLDRNLSCRVVGVPYQGNATALFILPSEGKMQQVENGLSEKTLRKWLKMFKKRQLELYLPKFSIEGSYQLEKVLPSLGISNVFTSHADLSGISNHSNIQVSEMVHKAVVEVDESGTRAAAATGTIKTRRHARLNSQRLVFNRPFLMFIVDNNILFLGKVNRP", "second-order rate constant of inhibition": "21 M⁻¹ s⁻¹"}
{"binder": "A22 D8 PCI (P4QP2RP1′N) (other, As A22 WT PCI) APSSRRDFTFDLYRALASAAPSQNIFFSPVSISMSLAMLSLGAGSSTKMQILEGLGLNLQKSSEKELHRGFQQLLQELNQPRDGFQLSLGNALFTDLVVDLQDTFVSAMKTLYLADTFPTNFRDSAGAMKQINDYVAKQTKGKIVDLLKNLDSNAVVIMVNYIFFKAKWETSFNHKGTQEQDFYVTSETVVRVPMMSREDQYHYLLDRNLSCRVVGVPYQGNATALFILPSEGKMQQVENGLSEKTLRKWLKMFKKRQLELYLPKFSIEGSYQLEKVLPSLGISNVFTSHADLSGISNHSNIQVSEMVHKAVVEVDESGTRAAAATGTIQTRRNARLNSQRLVFNRPFLMFIVDNNILFLGKVNRP", "second-order rate constant of inhibition": "84 M⁻¹ s⁻¹"}
{"binder": "A22 2.B10 PCI (P4SP2LP1′K) (other, As A22 WT PCI) APSSRRDFTFDLYRALASAAPSQNIFFSPVSISMSLAMLSLGAGSSTKMQILEGLGLNLQKSSEKELHRGFQQLLQELNQPRDGFQLSLGNALFTDLVVDLQDTFVSAMKTLYLADTFPTNFRDSAGAMKQINDYVAKQTKGKIVDLLKNLDSNAVVIMVNYIFFKAKWETSFNHKGTQEQDFYVTSETVVRVPMMSREDQYHYLLDRNLSCRVVGVPYQGNATALFILPSEGKMQQVENGLSEKTLRKWLKMFKKRQLELYLPKFSIEGSYQLEKVLPSLGISNVFTSHADLSGISNHSNIQVSEMVHKAVVEVDESGTRAAAATGTISTLRKARLNSQRLVFNRPFLMFIVDNNILFLGKVNRP", "second-order rate constant of inhibition": "16 M⁻¹ s⁻¹"}
{"binder": "A22 5.E12 PCI (P4HP2RP1′V) (other, As A22 WT PCI) APSSRRDFTFDLYRALASAAPSQNIFFSPVSISMSLAMLSLGAGSSTKMQILEGLGLNLQKSSEKELHRGFQQLLQELNQPRDGFQLSLGNALFTDLVVDLQDTFVSAMKTLYLADTFPTNFRDSAGAMKQINDYVAKQTKGKIVDLLKNLDSNAVVIMVNYIFFKAKWETSFNHKGTQEQDFYVTSETVVRVPMMSREDQYHYLLDRNLSCRVVGVPYQGNATALFILPSEGKMQQVENGLSEKTLRKWLKMFKKRQLELYLPKFSIEGSYQLEKVLPSLGISNVFTSHADLSGISNHSNIQVSEMVHKAVVEVDESGTRAAAATGTIHTRRVARLNSQRLVFNRPFLMFIVDNNILFLGKVNRP", "second-order rate constant of inhibition": "23 M⁻¹ s⁻¹"}
